Biological target: human RORγt (Homo sapiens, UniProt P51449)
Sequence (P51449 97-516): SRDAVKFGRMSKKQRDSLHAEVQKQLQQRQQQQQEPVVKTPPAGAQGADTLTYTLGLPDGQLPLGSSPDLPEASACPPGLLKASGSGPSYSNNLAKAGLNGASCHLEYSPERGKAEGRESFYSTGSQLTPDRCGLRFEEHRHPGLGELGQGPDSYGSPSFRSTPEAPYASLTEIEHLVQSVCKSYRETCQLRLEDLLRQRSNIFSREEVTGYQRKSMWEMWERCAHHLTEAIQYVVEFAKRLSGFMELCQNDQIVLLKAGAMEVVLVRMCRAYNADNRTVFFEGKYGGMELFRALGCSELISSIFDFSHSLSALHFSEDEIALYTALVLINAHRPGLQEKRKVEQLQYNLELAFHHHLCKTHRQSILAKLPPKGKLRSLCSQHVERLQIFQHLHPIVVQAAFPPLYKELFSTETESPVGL
Assay: RORγt-GAL4 dual-luciferase reporter assay
result.type: pIC50
One number for each entry, as −log10 of the molar value.

Prompt: Param item = C[C@H]1[C@H](C)CC[C@]2(C(=O)O)CC[C@]3(C)C(=CC[C@@H]4[C@@]5(C)CCC(=O)C(C)(C)[C@@H]5CC[C@]43C)[C@H]12 [ursonic acid, Ursonic Acid] ; retrieve measured pIC50.
Completion: 7.00

====

Record form. Attribute: Kd. Fill in for each entry.
Target chain: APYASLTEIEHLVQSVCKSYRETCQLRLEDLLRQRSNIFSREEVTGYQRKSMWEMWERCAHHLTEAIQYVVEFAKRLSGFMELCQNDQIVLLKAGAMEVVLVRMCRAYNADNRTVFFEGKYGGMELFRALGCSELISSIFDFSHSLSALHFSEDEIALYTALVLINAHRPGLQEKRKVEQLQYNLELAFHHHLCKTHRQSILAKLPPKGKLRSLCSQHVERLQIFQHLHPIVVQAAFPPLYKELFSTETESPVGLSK
Give bare numbers, in nM.

- C[C@H]1[C@H](C)CC[C@]2(C(=O)O)CC[C@]3(C)C(=CC[C@@H]4[C@@]5(C)CCC(=O)C(C)(C)[C@@H]5CC[C@]43C)[C@H]12: 3040

Consider the record given below.
Prompt: Param item = CC1(C)CC[C@]2(C(=O)O)CC[C@]3(C)C(=CC[C@@H]4[C@@]5(C)CCC(=O)C(C)(C)[C@@H]5CC[C@]43C)[C@@H]2C1 ; retrieve measured Kd.
Completion: 1060

====

Record form. Attribute: IC50. Fill in for each entry.
Target: RORγt-LBD (262-518) (Homo sapiens, UniProt P51449)
Assay type: biochemical
Give bare numbers, in nM.

For each of the compounds below, note its IC50.
1. C[C@H]1[C@H](C)CC[C@]2(C(=O)O)CC[C@]3(C)C(=CC[C@@H]4[C@@]5(C)CCC(=O)C(C)(C)[C@@H]5CC[C@]43C)[C@H]12
2. CC1(C)CC[C@]2(C(=O)O)CC[C@]3(C)C(=CC[C@@H]4[C@@]5(C)CCC(=O)C(C)(C)[C@@H]5CC[C@]43C)[C@@H]2C1

Completion:
10
280
